Tested on: SK-MEL-28 melanoma
protocol description: NCI tumour cell line growth inhibition, 48 h; in the data active means GI50 below about 0.43 µM; inactive means the rest
Write down one outcome, taken from 1 for active, 0 for inactive

Request: What did this assay record as the result for "CC(C)C[C@H](NC(=O)[C@H]1O[C@@H]1C(=O)O)C(=O)NCCc1ccc(O)cc1" ?
Result: 0

Request: What did this assay record as the result for "COc1cc2c3c(n(CCCNCC(OC)OC)c(=O)c2cc1OC)-c1cc2c(cc1C3=O)OCO2" ?
Result: 0

Request: What did this assay record as the result for "Cc1nn(-c2ccccc2)c2c1CC(=O)Nc1ccccc1-2" ?
Result: 1

Request: What did this assay record as the result for "COc1ccc(-c2nnc(SCC(=O)Nc3ccc(/C(C)=N\O)cc3)n2-c2ccccc2)cc1OC" ?
Result: 0

Request: What did this assay record as the result for "COc1ccn2c(C(C)=O)cc(C(=O)c3ccc4c(c3)Sc3ccccc3N4)c2c1" ?
Result: 0

Request: What did this assay record as the result for "O=C1c2ccc3c4c5ccc(c24)C(=O)N1CCCOCCCCOCCCNCc1ccc(cc1)CNCCCOCCCCOCCCN(C3=O)C5=O" ?
Result: 0

Request: What did this assay record as the result for "CC(C)[C@@]12C[C@@H](OC(=O)COC(=O)/C=C/c3ccccc3)[C@@](C)(O1)[C@@H]1CC[C@@H](C)[C@H]1[C@@H]2OC(=O)/C=C/c1ccccc1" ?
Result: 0

Request: What did this assay record as the result for "COc1ccc(-c2cnnn2-c2cc(OC)c3c(c2)OCO3)cc1" ?
Result: 0

Request: What did this assay record as the result for "COc1ccc(-c2cc(-c3ccccc3)nc(N3CCN(CCNc4ccnc5cc(Cl)ccc45)CC3)n2)cc1" ?
Result: 0

Request: What did this assay record as the result for "COc1ccc(C/C(C)=C(\c2ccc(OCCN3CCOCC3)cc2)c2ccc(OC(=O)Cc3ccccc3)cc2)cc1" ?
Result: 0

Request: What did this assay record as the result for "N#Cc1cccc(C(=O)Nc2cccc(NC(=O)c3cccc(C#N)c3)c2)c1" ?
Result: 0

Request: What did this assay record as the result for "O=Cc1cn(Cc2cccc(Cl)c2)c2ccccc12" ?
Result: 0

Request: What did this assay record as the result for "COc1ccc(C(=O)/C=C/c2c(C(F)(F)F)nc3sccn23)cc1OC" ?
Result: 0

Request: What did this assay record as the result for CCN(CCNc1ccc(C)c2sc3cc(Cl)ccc3c(=O)c12)CC(C)O (stereo not given) ?
Result: 0

Request: What did this assay record as the result for "O=C1/C(=C/c2ccc([N+](=O)[O-])o2)Oc2ccc(Br)cc21" ?
Result: 0
